System: HeLa
ASSAY REMARKS: cells
CONDITIONS USED: Homo sapiens, 48 h
Description: Cytotoxicity against human HeLa cells after 48 hrs by MTT assay
EXPERIMENTAL READOUT: IC50 (µM)

COc1ccc2cc(-c3cn(CC(=O)N[C@@H]4c5cc6c(cc5[C@@H](c5cc(OC)c(OC)c(OC)c5)[C@H]5C(=O)OC[C@@H]54)OCO6)nn3)ccc2c1; 15.4
COc1cc([C@@H]2c3cc4c(cc3[C@@H](NC(=O)Cn3cc(CCC5C(=O)c6ccccc6C5=O)nn3)[C@H]3COC(=O)[C@H]23)OCO4)cc(OC)c1OC; 2.6
COc1cc([C@@H]2c3cc4c(cc3[C@@H](NC(=O)Cn3cc(-c5ccccn5)nn3)[C@H]3COC(=O)[C@H]23)OCO4)cc(OC)c1OC; 23.6
COc1cc([C@@H]2c3cc4c(cc3[C@@H](NC(=O)Cn3cc(-c5cccc(Cl)c5)nn3)[C@H]3COC(=O)[C@H]23)OCO4)cc(OC)c1OC; 28.4
COc1cc([C@@H]2c3cc4c(cc3[C@@H](NC(=O)Cn3cc(-c5cncn5C)nn3)[C@H]3COC(=O)[C@H]23)OCO4)cc(OC)c1OC; 2.3
COc1cc([C@@H]2c3cc4c(cc3[C@@H](NC(=O)Cn3cc(-c5ccc(C)cc5)nn3)[C@H]3COC(=O)[C@H]23)OCO4)cc(OC)c1OC; 16.8
COc1cc([C@@H]2c3cc4c(cc3[C@H](O)[C@H]3COC(=O)[C@H]23)OCO4)cc(OC)c1OC; 2.36
COc1ccc(-c2cn(CC(=O)N[C@@H]3c4cc5c(cc4[C@@H](c4cc(OC)c(OC)c(OC)c4)[C@H]4C(=O)OC[C@@H]43)OCO5)nn2)cc1OC; 17.9
COc1cc([C@@H]2c3cc4c(cc3[C@@H](NC(=O)Cn3cc(-c5cccs5)nn3)[C@H]3COC(=O)[C@H]23)OCO4)cc(OC)c1OC; 6.5
COc1cc([C@@H]2c3cc4c(cc3[C@@H](NC(=O)Cn3cc(-c5ccc(Br)cc5)nn3)[C@H]3COC(=O)[C@H]23)OCO4)cc(OC)c1OC; 0.07
COc1cc([C@@H]2c3cc4c(cc3[C@@H](NC(=O)Cn3cc(-c5ccccc5)nn3)[C@H]3COC(=O)[C@H]23)OCO4)cc(OC)c1OC; 19.6
COc1cc([C@@H]2c3cc4c(cc3[C@@H](NC(=O)Cn3cc(-c5ccc(C(C)(C)C)cc5)nn3)[C@H]3COC(=O)[C@H]23)OCO4)cc(OC)c1OC; 0.9
COc1cc([C@@H]2c3cc4c(cc3[C@@H](NC(=O)Cn3cc(-c5cccc(N)c5)nn3)[C@H]3COC(=O)[C@H]23)OCO4)cc(OC)c1OC; 25.4
COc1cc([C@@H]2c3cc4c(cc3[C@@H](O[C@@H]3O[C@@H]5CO[C@@H](C)O[C@H]5[C@H](O)[C@H]3O)[C@H]3COC(=O)[C@H]23)OCO4)cc(OC)c1O [ETOPOSIDE]; 2.24
